Each recorded value in this set is attributed to ChEMBL document CHEMBL2417382.

Tested on: T47D
experiment notes: Antiproliferative activity against human T47D cells after 48 hrs by SRB assay
Assay type: functional
Each record is given true (1) if its reported GI50 is strictly below 30 µM. Records at or above 30 µM are given false (0).

# entry smiles, class
rows = [
    ("CCOC(=O)/C=C/C[C@]1(C)CC[C@@]2(O1)C(C)=CC[C@H]1C(C)(C)CCC[C@@]12C", "false (0)"),
    ("CC1=CC[C@H]2C(C)(C)CCC[C@]2(C)[C@@]12CC[C@@](C)(CC(=O)N(Cc1ccccc1)C(C)(C)C(=O)NCc1ccccc1)O2", "true (1)"),
    ("CC1=CC[C@H]2C(C)(C)CCC[C@]2(C)[C@@]12CC[C@@](C)(CC(=O)N(Cc1ccccc1)C(C)(C)C(=O)Nc1c(C)cccc1C)O2", "false (0)"),
    ("CC1=CC[C@H]2C(C)(C)CCC[C@]2(C)[C@@]12CC[C@@](C)(CC(=O)N(Cc1ccccc1)C(C)(C)C(=O)NC(C)(C)C(C)(C)C)O2", "false (0)"),
    ("CC1=CC[C@H]2C(C)(C)CCC[C@]2(C)[C@@]12CC[C@@](C)(CCn1cc(COc3cccc(OCc4cn(CC[C@]5(C)CC[C@@]6(O5)C(C)=CC[C@H]5C(C)(C)CCC[C@@]56C)nn4)c3)nn1)O2", "false (0)"),
    ("CCCCCCCCCCc1cn(CC[C@]2(C)CC[C@@]3(O2)C(C)=CC[C@H]2C(C)(C)CCC[C@@]23C)nn1", "false (0)"),
    ("CC1=CC[C@H]2C(C)(C)CCC[C@]2(C)[C@@]12CC[C@@](C)(C/C=C(\\C)CO)O2", "true (1)"),
]

----------
Tested on: T47D
experiment notes: Antiproliferative activity against human T47D cells after 48 hrs by SRB assay
Format: functional
Each entry below carries its recorded GI50.
readout kind: GI50 (µM)

# entry smiles, limit qualifier, quantitative result
measured = [
    ("C#CCNC(=O)OCC[C@]1(C)CC[C@@]2(O1)C(C)=CC[C@H]1C(C)(C)CCC[C@@]12C", "=", 16),
    ("C#CC[C@]1(C)CC[C@@]2(O1)C(C)=CC[C@H]1C(C)(C)CCC[C@@]12C", "=", 28),
    ("CC1=CC[C@H]2C(C)(C)CCC[C@]2(C)[C@@]12CC[C@@](C)(CCOC(=O)n1ccnc1)O2", "=", 17),
    ("CC1=CC[C@H]2C(C)(C)CCC[C@]2(C)[C@@]12CC[C@@](C)(CCOC(=O)NCc1cn(CC[C@]3(C)CC[C@@]4(O3)C(C)=CC[C@H]3C(C)(C)CCC[C@@]34C)nn1)O2", ">", 100),
]

----------
Items are presented alongside their recorded log10(GI50).
Tested on: T47D
experiment notes: Antiproliferative activity against human T47D cells after 48 hrs by SRB assay
Assay type: functional
readout kind: log10(GI50) (log10 of the value in µM)

# entry smiles, log10(GI50)
records = [
    ("CCCCNC(=O)C(C)(C)N(Cc1ccccc1)C(=O)C[C@]1(C)CC[C@@]2(O1)C(C)=CC[C@H]1C(C)(C)CCC[C@@]12C", 0.48),
    ("CC1=CC[C@H]2C(C)(C)CCC[C@]2(C)[C@@]12CC[C@@](C)(CC(=O)N(c1ccccc1)C(C)(C)C(=O)NC(C)(C)C)O2", 0.72),
    ("CC1=CC[C@H]2C(C)(C)CCC[C@]2(C)[C@@]12CC[C@@](C)(CCOC(=O)NCCCN(C)C)O2", 0.63),
    ("CC1=CC[C@H]2C(C)(C)CCC[C@]2(C)[C@@]12CC[C@@](C)(C[C@@H]1O[C@H]1CO)O2", 1.20),
    ("CC1=CC[C@H]2C(C)(C)CCC[C@]2(C)[C@@]12CC[C@@](C)(CC(=O)O)O2", 1.84),
]
